assay: Kinetic study in dogs (oral administration, plasma levodopa); settings: male, beagle, dog, plasma, po, 3 mg/kg
measurement_kind: AUC (ng·h/mL)

# compound, measurement_kind, result_value
records = [
    ("N[C@@H](Cc1ccc(O)c(O)c1)C(=O)O [Levodopa, L-3,4-dihydroxyphenylalanine]", "AUC", 960),
]

###

# AUC (area under the blood concentration-time curve of levodopa) values compiled below
test: Kinetic study in dogs (oral administration, plasma levodopa); conditions: dog, in vivo, po, 3 mg/kg
measurement_kind: AUC (area under the blood concentration-time curve of levodopa) (μg^+ hr/mL)

# compound, unit_name, result_value
measured = [
    ("CC(C)(COC(=O)c1ccccc1)C(=O)Oc1ccc(C[C@H](N)C(=O)O)cc1OC(=O)C(C)(C)COC(=O)c1ccccc1.Cl [Reference Example 40]", "μg^+ hr/mL", 0.81),
    ("Cl.N[C@@H](Cc1ccc(OC(=O)CC2CCCCC2)c(OC(=O)CC2CCCCC2)c1)C(=O)O [Reference Example 29]", "μg^+ hr/mL", 0.59),
    ("N[C@@H](Cc1ccc(OC(=O)c2ccccc2C(F)(F)F)c(OC(=O)c2ccccc2C(F)(F)F)c1)C(=O)O [Reference Example 25]", "μg^+ hr/mL", 0.31),
    ("Cl.N[C@@H](Cc1ccc(OC(=O)CC2CCCC2)c(OC(=O)CC2CCCC2)c1)C(=O)O [Reference Example 28]", "μg^+ hr/mL", 0.68),
    ("CC1(CC(=O)Oc2ccc(C[C@H](N)C(=O)O)cc2OC(=O)CC2(C)CCCC2)CCCC1.Cl [Reference Example 31]", "μg^+ hr/mL", 0.42),
    ("CC(C)(OC(=O)c1ccccc1)C(=O)Oc1ccc(C[C@H](N)C(=O)O)cc1OC(=O)C(C)(C)OC(=O)c1ccccc1.Cl", "μg^+ hr/mL", 0.89),
    ("COC(=O)[C@@H](N)Cc1ccc(OC(=O)CC(C)(C)C)c(OC(=O)CC(C)(C)C)c1", "μg^+ hr/mL", 0.42),
]
